// pKd lookup, one value per entry
# study.system: T1, RFS1 K56A (Walker A);RIP1 (cShu subunit);SWS1 (cShu subunit) (Caenorhabditis elegans;Caenorhabditis …, UniProt P34348;Q21621;Q8MYM5 1-245;1-209;1-191, K56A||)
# T1 sequence 1: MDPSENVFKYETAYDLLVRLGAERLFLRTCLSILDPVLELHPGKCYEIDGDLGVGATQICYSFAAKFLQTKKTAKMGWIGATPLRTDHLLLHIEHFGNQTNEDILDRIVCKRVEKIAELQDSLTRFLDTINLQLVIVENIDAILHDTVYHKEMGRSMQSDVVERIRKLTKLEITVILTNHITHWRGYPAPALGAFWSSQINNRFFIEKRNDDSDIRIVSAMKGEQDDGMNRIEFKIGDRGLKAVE
# T1 sequence 2: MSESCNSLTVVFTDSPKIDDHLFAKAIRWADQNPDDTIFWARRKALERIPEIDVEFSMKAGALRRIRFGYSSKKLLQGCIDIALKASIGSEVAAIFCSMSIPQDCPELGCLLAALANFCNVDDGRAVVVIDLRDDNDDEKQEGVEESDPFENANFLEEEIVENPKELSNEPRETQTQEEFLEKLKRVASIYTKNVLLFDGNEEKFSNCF
# T1 sequence 3: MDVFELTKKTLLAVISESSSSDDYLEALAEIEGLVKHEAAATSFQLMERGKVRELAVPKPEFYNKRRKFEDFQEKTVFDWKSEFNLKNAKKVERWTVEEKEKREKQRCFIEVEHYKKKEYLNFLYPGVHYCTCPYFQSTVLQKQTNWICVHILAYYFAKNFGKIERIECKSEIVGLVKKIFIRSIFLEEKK
# experiment.notes: fluorescence polarization
pKd: −log10 of the molar value.
property.label: pKd

INSERT INTO assay_data (binder, readout_number) VALUES
  ('5''-overhang (20 nt) (mixed) DNA 1: TTTTTTTTTTTTTTTTTTTTCTTGACAAGCTTGCGCACT DNA 2: AGTGCGCAAGCTTGTCAAG', 5.41),
  ('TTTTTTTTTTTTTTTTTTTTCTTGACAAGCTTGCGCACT (ssDNA) [ss39]', 5.52),
  ('Fork (20 nt) (mixed) DNA 1: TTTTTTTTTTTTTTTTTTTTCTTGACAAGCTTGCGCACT DNA 2: AGTGCGCAAGCTTGTCAAGGCACTTTTTTTTTTTTTTTT', 5.57);
